Molecular target: gastrin receptor (Rattus norvegicus, UniProt P30553)
Construct: The stomach was excised and flushed with ca. 1 ml of unbuffered physiological saline solution; from tissue; host or cells: isolated whole stomach of immature rats (ca. 21 days old)
Sequence (P30553 whole entry): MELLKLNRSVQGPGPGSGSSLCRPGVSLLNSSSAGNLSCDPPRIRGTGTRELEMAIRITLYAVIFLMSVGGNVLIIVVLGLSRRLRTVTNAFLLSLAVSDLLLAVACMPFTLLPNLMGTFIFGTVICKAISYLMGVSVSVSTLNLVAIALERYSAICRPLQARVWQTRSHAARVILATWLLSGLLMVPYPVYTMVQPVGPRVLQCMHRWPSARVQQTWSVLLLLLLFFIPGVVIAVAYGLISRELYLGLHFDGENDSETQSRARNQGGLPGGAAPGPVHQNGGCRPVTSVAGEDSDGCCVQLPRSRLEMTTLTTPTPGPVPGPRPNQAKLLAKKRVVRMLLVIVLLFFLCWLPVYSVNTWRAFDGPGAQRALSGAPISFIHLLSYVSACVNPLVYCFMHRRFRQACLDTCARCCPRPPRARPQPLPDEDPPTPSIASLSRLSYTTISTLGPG
Assay: gastrin antagonist activity in immature rat stomach assay (pentagastrin dose-response, acid secretion)
Details: isolated immature rat stomach, cumulative pentagastrin dose-response curves, read-out: Gastrin pKb (converted)
Would you mind telling me the reported log10 of Kb of each entry?
On a log10 scale: recorded Kb, unit nM.

Here are 5 compounds together with their reported answers.
compound-string | measurement
Cc1ccc(-c2nc(C(=O)Nc3ccc(C)c(C(=O)O)c3)c(CCC34CC5CC(CC(C5)C3)C4)[nH]2)c(C)c1 | 1.34
Cc1ccc(NC(=O)c2nc(-c3c(C)cccc3C)[nH]c2CCC23CC4CC(CC(C4)C2)C3)cc1C(=O)O | 1.76
O=C(O)c1cccc(NC(=O)c2nc(C3CCCCC3)[nH]c2COCC23CC4CC(CC(C4)C2)C3)c1 | 1.39
Cc1c(NC(=O)c2nc(C3CCCCC3)[nH]c2CCC23CC4CC(CC(C4)C2)C3)cccc1C(=O)O | 1.81
Cc1c(NC(=O)c2nc(C34CCC(CC3)CC4)[nH]c2COC23CC4CC(CC(C4)C2)C3)cccc1C(=O)O | 1.31

Give me log10 of Kb for each of these compounds, listed below.
1. CN1CCC[C@H]1c1nc(C(=O)Nc2cccc(C(=O)O)c2)c(CCC23CC4CC(CC(C4)C2)C3)[nH]1
2. Cc1cc(C)c(-c2nc(C(=O)Nc3cccc(CC(=O)O)c3)c(CCC34CC5CC(CC(C5)C3)C4)[nH]2)c(C)c1
3. Cc1ccc(NC(=O)c2nc(-c3ccco3)[nH]c2CCC23CC4CC(CC(C4)C2)C3)cc1C(=O)O
4. O=C(O)c1cccc(NC(=O)c2nc([C@@H]3CCCN3)[nH]c2CCC23CC4CC(CC(C4)C2)C3)c1

stdout:
1. 0.71
2. 2.34
3. 1.88
4. 2.17
